Reference source: ChEMBL document CHEMBL1201862

Tested on: COLO 205
Assay: NCI tumour cell line growth inhibition, 48 h
Activity calls are given as the source filed them. Rule as the data show it: active = GI50 up to about 1.1 µM and inactive = higher.
recorded_endpoint: GI50

>  <compound>
Cc1cc(C)cc(C(=N)c2ccccc2Cc2cccc3ccccc23)c1

>  <test_value>
21.3 µM (inactive)

$$$$
>  <compound>
Oc1cc(CN2COc3ccccc32)c(O)cc1CNC1CCCCC1

>  <test_value>
17 µM (inactive)

$$$$
>  <compound>
CCCCc1ccc(-n2sc3ncc(C)cc3c2=O)cc1

>  <test_value>
20.5 µM (inactive)

$$$$
>  <compound>
CC(O)c1nc(C#N)c(N)o1 (configuration not stated)

>  <test_value>
> 100 µM (inactive)

$$$$
>  <compound>
CCC(c1ccc2cc(O)ccc2c1)C(C)(C)C(=O)O (configuration not stated)

>  <test_value>
> 100 µM (inactive)

$$$$
>  <compound>
O=C1C(Cl)=C(N2CCN(CCOCCO)CC2)C(=O)c2ncccc21

>  <test_value>
> 10 µM (inactive)

$$$$
>  <compound>
NC(=O)COc1ccc(Br)cc1Br

>  <test_value>
> 100 µM (inactive)

$$$$
